Reference source: the supplement of paper PMC6555819

System: RARa:RXR (NR concentration 270 nM, RXRa partner concentration 90 nM)
PROCEDURE_TEXT: PBM binding z-score (relative to random genomic background probes); higher = stronger binding; sequences stand for … in GC…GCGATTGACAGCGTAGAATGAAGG
ENDPOINT_NAME: PBM binding z-score
Output: the number by itself.

These solved cases illustrate the format of a correct answer.
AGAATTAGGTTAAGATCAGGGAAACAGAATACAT; 0.922
CCAGACATGTGAGAAGGTAACTCAGCCTCGATTA; 0.384
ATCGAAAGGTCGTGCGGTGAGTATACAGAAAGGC; 3.75
TAGCCTATGTCATTCAGGGGCCAGTATAGAAAGC; 0.125
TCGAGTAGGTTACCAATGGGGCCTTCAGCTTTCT; 0.0831

Q: Field request: PBM binding z-score | item: "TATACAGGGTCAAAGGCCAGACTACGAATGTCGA"
A: 6.23

Q: Field request: PBM binding z-score | item: "TGAATGAGGTTATAAGACCAGGGAACGTTGCAAA"
A: 1.33

Q: Field request: PBM binding z-score | item: "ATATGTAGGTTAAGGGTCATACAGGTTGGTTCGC"
A: 6.2

Q: Field request: PBM binding z-score | item: "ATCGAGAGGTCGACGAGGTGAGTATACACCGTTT"
A: 2.84

Q: Field request: PBM binding z-score | item: "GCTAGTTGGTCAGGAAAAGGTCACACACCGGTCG"
A: 5.97

Q: Field request: PBM binding z-score | item: "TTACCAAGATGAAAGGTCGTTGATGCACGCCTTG"
A: 2.24

Q: Field request: PBM binding z-score | item: "CGTCCAAGGTCAGCATGTCAGTGAAAGCGACGTG"
A: 3.01

====

Reported values of PBM binding z-score for individual entries
Test system: PPARa:RXRa (NR concentration 270 nM, RXRa partner concentration 90 nM)
PROCEDURE_TEXT: PBM binding z-score (relative to random genomic background probes); higher = stronger binding; sequences stand for … in GC…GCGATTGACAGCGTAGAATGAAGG
Output: the number by itself.

These solved cases illustrate the format of a correct answer.
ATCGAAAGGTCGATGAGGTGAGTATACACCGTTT; 3.5
CGTCCAAGGTCATTGCTAGGTCAGTGAAAGCATT; 5.32
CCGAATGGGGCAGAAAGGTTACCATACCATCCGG; 2.53

Q: Field request: PBM binding z-score | item: "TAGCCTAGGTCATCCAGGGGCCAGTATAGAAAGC"
A: 3.66

Q: Field request: PBM binding z-score | item: "CCTATTAGTTGACCATAAGGGCAAGCGAAGCTCG"
A: 0.369

Q: Field request: PBM binding z-score | item: "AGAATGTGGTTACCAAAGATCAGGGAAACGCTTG"
A: -0.0504

====

Test system: PPARg:RXRa DBDmut IVT, anti-RXR (DBD mutation: RXRa K156A/R161A, NR concentration 270 nM, RXRa partner concentration 90 nM)
PROCEDURE_TEXT: PBM binding z-score (relative to random genomic background probes); higher = stronger binding; sequences stand for … in GC…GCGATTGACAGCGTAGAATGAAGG
ENDPOINT_NAME: PBM binding z-score
Output: the number by itself.

These solved cases illustrate the format of a correct answer.
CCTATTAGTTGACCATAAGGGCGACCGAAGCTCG; 0.603
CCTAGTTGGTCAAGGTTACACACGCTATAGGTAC; 1.65
CATACAGGGTCAGCTAGGCCAGAGTAGGGACGGC; 1.4
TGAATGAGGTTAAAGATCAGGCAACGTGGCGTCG; 2.24
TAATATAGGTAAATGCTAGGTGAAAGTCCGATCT; 5.57
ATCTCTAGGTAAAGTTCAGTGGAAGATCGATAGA; 2.46
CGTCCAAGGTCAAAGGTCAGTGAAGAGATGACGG; 4.23
ACAGACAGCTGAGTGAAGGTAACTCAGCTGGACG; -0.835

Q: Field request: PBM binding z-score | item: "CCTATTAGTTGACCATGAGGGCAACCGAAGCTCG"
A: 0.64

Q: Field request: PBM binding z-score | item: "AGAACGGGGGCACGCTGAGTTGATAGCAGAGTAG"
A: 4.63

Q: Field request: PBM binding z-score | item: "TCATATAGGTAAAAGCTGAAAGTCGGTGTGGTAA"
A: 4.01

Q: Field request: PBM binding z-score | item: "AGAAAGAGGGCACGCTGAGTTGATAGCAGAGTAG"
A: 3.25

====

System: PPARa:RXRa (NR concentration 270 nM, RXRa partner concentration 90 nM)
PROCEDURE_TEXT: PBM binding z-score (relative to random genomic background probes); higher = stronger binding; sequences stand for … in GC…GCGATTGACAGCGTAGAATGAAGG
Label criterion not met if PBM binding z-score falls below 1; label criterion met in every other case.

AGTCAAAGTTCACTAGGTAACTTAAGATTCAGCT; criterion met
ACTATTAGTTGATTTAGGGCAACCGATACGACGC; criterion not met
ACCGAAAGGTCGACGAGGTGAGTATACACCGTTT; criterion met

Q: Check the entry "TCTCTTAGTTGAAGGGCAACCGACGAGTCCGTTT" : does PBM binding z-score equal or exceed 1?
A: criterion met

Q: Check the entry "CGTCCAAGGTCAGCAGATCAGTGAAAGCGACGTG" : does PBM binding z-score equal or exceed 1?
A: criterion met

Q: Check the entry "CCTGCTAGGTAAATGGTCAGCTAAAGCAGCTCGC" : does PBM binding z-score equal or exceed 1?
A: criterion not met

Q: Check the entry "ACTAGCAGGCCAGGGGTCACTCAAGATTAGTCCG" : does PBM binding z-score equal or exceed 1?
A: criterion met

Q: Check the entry "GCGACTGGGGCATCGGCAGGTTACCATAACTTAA" : does PBM binding z-score equal or exceed 1?
A: criterion met

Q: Check the entry "TCGAGTAGGTTACCAATGGGGCATACAGCTTTCT" : does PBM binding z-score equal or exceed 1?
A: criterion met

====

Tested on: RARg:RXRa (NR concentration 270 nM, RXRa partner concentration 90 nM)
PROCEDURE_TEXT: PBM binding z-score (relative to random genomic background probes); higher = stronger binding; sequences stand for … in GC…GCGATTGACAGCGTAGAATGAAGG
ENDPOINT_NAME: PBM binding z-score

These solved cases illustrate the format of a correct answer.
CGAACTAGGTCCAGGACAGTGAATCTCCGCACGC; -0.326
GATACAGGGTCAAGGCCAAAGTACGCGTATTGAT; 5.66
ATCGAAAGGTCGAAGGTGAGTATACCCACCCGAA; 4.29
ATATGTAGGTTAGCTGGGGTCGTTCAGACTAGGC; 1.66

Q: Field request: PBM binding z-score | item: "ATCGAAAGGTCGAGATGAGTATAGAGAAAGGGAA"
A: 3.79

====

Test system: PXR homodimer (NR concentration 270 nM)
PROCEDURE_TEXT: PBM binding z-score (relative to random genomic background probes); higher = stronger binding; sequences stand for … in GC…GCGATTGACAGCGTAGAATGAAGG
ENDPOINT_NAME: PBM binding z-score
Output: the number by itself.

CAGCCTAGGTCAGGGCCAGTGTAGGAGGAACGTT; -0.524
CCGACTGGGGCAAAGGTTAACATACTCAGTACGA; -0.0875
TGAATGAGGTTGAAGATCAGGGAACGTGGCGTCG; -0.315

Please look at the following sequence next.
Q: Field request: PBM binding z-score | item: "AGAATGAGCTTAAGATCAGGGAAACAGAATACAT"
A: -0.0876

====

Tested on: PXR homodimer (NR concentration 270 nM)
PROCEDURE_TEXT: PBM binding z-score (relative to random genomic background probes); higher = stronger binding; sequences stand for … in GC…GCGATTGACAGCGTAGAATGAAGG
ENDPOINT_NAME: PBM binding z-score
Output: the number by itself.

These solved cases illustrate the format of a correct answer.
ACTAGTTGGTCAGCTGAGGTCACGCACAATTCGG; 1.08
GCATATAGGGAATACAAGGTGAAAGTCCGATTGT; -0.0382
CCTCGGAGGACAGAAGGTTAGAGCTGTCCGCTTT; -0.764
ATCTCTAGGTAAAGATAGCTCAGTGAATGCAAAT; -0.0577
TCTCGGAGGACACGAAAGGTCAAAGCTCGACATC; 1.21

Please look at the following sequence next.
Q: Field request: PBM binding z-score | item: "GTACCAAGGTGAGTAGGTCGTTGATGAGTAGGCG"
A: 0.0427

====

Test system: PPARg DBDmut:RXRa IVT, anti-PPARg (DBD mutation: PPARg1 K132A/R137A, NR concentration 270 nM, RXRa partner concentration 90 nM)
PROCEDURE_TEXT: PBM binding z-score (relative to random genomic background probes); higher = stronger binding; sequences stand for … in GC…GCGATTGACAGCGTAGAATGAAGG
Reported values of PBM binding z-score for individual entries
Output: the number by itself.

These solved cases illustrate the format of a correct answer.
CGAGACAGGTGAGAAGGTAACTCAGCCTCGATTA; -0.719
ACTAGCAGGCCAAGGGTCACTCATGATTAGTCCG; 0.294
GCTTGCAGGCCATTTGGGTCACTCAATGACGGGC; -0.212

Q: Field request: PBM binding z-score | item: "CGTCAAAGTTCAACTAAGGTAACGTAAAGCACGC"
A: 1.23

Q: Field request: PBM binding z-score | item: "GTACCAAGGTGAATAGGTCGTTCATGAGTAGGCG"
A: 0.421

Q: Field request: PBM binding z-score | item: "GCTATTAGTTGAAAGGGCAACCTAATGATTCTCG"
A: 0.904

Q: Field request: PBM binding z-score | item: "TCATATAGGAAAAGGTGAAAGTCGAACGATATGA"
A: 1.28

Q: Field request: PBM binding z-score | item: "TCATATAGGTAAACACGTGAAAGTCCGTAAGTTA"
A: 0.9

Q: Field request: PBM binding z-score | item: "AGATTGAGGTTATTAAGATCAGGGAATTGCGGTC"
A: 0.654

Q: Field request: PBM binding z-score | item: "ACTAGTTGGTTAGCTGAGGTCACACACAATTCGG"
A: 0.586

Q: Field request: PBM binding z-score | item: "CGTCCAAGGCCAATGCTAGGTCAGTGAAAGCATT"
A: -0.963

Q: Field request: PBM binding z-score | item: "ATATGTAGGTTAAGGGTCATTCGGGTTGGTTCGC"
A: 6.59
